Let's look at some molecules and their measured Ki.
- Experimental System: Sodium-dependent dopamine transporter (Homo sapiens, UniProt Q01959)
- Sequence (Q01959 whole entry): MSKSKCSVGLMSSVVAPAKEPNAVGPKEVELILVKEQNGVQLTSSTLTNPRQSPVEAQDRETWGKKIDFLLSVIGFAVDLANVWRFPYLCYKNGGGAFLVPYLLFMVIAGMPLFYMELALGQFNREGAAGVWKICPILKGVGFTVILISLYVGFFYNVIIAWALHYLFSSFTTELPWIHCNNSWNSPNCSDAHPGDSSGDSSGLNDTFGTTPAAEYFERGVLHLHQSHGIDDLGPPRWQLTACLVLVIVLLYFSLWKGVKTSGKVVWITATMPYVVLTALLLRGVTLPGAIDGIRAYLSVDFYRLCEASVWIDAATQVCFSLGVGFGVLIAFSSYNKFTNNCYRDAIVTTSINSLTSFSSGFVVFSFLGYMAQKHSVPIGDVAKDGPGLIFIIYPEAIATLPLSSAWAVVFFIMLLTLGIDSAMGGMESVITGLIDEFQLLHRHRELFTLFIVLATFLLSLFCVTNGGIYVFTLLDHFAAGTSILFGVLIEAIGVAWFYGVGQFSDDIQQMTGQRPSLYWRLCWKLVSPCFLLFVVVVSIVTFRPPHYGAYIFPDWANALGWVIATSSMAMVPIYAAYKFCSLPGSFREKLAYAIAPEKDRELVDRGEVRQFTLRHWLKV
- Experimental Protocol: Displacement of [3H]GBR-12935 from human cloned DAT expressed in HEK293 cells
- Format: cell-based

// map Cc1ccc(Sc2ccccc2CN(C)C)c(NCc2ccc(F)cc2)c1 to recorded Ki (system: Sodium-dependent dopamine transporter (Homo sapiens, UniProt Q01959))
> 1.5 µM

Others:
// map CNCc1ccccc1Sc1ccc(C)cc1NC(=O)c1ccc(F)cc1 to recorded Ki (system: Sodium-dependent dopamine transporter (Homo sapiens, UniProt Q01959))
> 1 µM

// map Cc1ccc(Sc2ccccc2CN(C)C)c(NC(=O)c2ccc([N+](=O)[O-])cc2)c1 to recorded Ki (system: Sodium-dependent dopamine transporter (Homo sapiens, UniProt Q01959))
> 1 µM

// map CNCc1ccccc1Sc1ccc(C)cc1NCc1ccc(F)cc1 to recorded Ki (system: Sodium-dependent dopamine transporter (Homo sapiens, UniProt Q01959))
> 2 µM

* * *

Let's look at some molecules and their measured Ki.
- Experimental System: Sodium-dependent serotonin transporter (Rattus norvegicus)
- Sequence (P31652 whole entry): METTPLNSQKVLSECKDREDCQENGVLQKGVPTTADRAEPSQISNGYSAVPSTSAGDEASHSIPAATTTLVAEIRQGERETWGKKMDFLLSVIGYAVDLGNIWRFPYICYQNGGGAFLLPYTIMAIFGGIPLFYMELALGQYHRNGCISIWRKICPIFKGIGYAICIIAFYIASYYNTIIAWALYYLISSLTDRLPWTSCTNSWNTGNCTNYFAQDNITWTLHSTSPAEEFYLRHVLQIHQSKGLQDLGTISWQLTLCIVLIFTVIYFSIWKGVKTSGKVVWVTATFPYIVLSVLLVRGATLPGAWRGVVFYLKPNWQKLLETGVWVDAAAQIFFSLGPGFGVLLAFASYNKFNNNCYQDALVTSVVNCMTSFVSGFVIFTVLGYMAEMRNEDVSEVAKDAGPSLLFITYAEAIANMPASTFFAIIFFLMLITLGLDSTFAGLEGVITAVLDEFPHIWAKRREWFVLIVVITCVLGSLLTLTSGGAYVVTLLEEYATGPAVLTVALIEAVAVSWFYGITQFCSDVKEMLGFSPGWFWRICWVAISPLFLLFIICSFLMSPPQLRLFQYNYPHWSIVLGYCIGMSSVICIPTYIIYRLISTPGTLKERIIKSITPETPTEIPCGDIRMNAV
- Experimental Protocol: Displacement of [125I]IDAM from SERT in rat brain cortex membrane
- Type: cell membranes
Report the figure in nM without appending any unit label.

Recorded Ki of CN(C)Cc1ccccc1Sc1ccc(I)cc1NC(=O)c1ccc(F)cc1 , please.
193

Recorded Ki of CN(C)Cc1ccccc1Sc1ccccc1NC(=O)c1ccc(F)cc1 , please.
34

Recorded Ki of CN(C)Cc1ccccc1Sc1ccc(Cl)cc1NC(=O)c1ccc(F)cc1 , please.
0.9

Others:
Recorded Ki of CN(C)Cc1ccccc1Sc1ccc(Br)cc1NC(=O)c1ccc(F)cc1 , please.
8

* * *

- Experimental Protocol: Partition coefficient, log P in n-octanol/0.02 M phosphate buffer at pH 7.4
- Format: physicochemical
Let's look at some molecules and their measured logD.

Recorded logD of Cc1ccc(Sc2ccccc2CN(C)C)c(N)c1 , please.
2.46

// below: logD requested for another molecule
Recorded logD of CN(C)Cc1ccccc1Sc1ccc(I)cc1N , please.
2.52

* * *

Let's look at some compounds and their measured pKi.
- Experimental System: Sodium-dependent noradrenaline transporter (Homo sapiens)
- Sequence (P23975 whole entry): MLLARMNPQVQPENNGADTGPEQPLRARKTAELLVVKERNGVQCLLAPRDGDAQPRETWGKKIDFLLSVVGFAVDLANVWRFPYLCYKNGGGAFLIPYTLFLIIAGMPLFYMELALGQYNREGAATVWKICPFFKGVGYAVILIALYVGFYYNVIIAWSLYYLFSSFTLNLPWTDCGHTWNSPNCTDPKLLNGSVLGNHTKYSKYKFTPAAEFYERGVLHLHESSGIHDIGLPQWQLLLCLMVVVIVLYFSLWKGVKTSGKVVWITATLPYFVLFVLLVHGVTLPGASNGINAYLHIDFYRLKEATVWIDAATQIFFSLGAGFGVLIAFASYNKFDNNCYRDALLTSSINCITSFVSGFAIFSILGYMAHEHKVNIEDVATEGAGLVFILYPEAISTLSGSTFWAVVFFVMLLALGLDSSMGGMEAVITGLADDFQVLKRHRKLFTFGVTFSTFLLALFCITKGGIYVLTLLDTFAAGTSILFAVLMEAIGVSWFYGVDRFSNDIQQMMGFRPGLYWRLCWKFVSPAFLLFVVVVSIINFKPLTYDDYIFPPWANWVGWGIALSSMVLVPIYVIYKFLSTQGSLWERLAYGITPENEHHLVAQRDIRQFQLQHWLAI
pKi: −log10 of the molar value.

// map Cc1ccc(Sc2ccccc2CN(C)C)c(NC(=O)c2ccc([N+](=O)[O-])cc2)c1 to recorded pKi (system: Sodium-dependent noradrenaline transporter (Homo sapiens))
< 6.00

// map Cc1ccc(Sc2ccccc2CN(C)C)c(NC(=O)c2ccc(F)cc2)c1 to recorded pKi (system: Sodium-dependent noradrenaline transporter (Homo sapiens))
< 5.28

Others:
// map CNCc1ccccc1Sc1ccc(C)cc1NC(=O)c1ccc(F)cc1 to recorded pKi (system: Sodium-dependent noradrenaline transporter (Homo sapiens))
< 5.60

// map CNCc1ccccc1Sc1ccc(C)cc1NCc1ccc(F)cc1 to recorded pKi (system: Sodium-dependent noradrenaline transporter (Homo sapiens))
< 6.00

* * *

- Experimental Protocol: Partition coefficient, log P at pH 7.4 by reverse-phase HPLC
- Assay type: physicochemical
- Condition Description: octanol/water, read-out: logP
Let's look at some compounds and their measured chromatographic logD.
Respond numerically, and do not add a unit to the figure.

Recorded chromatographic logD of Cc1ccc(Sc2ccccc2CN(C)C)c(NCc2ccc(F)cc2)c1 , please.
4.7

// below: chromatographic logD requested for another compound
Recorded chromatographic logD of Cc1ccc(Sc2ccccc2CN(C)C)c(NC(=O)c2ccc(F)cc2)c1 , please.
2.99
